Overview of reported IC50 across a group of compounds:
# Test system: p-IKKa levels in L363 (NIK translocated multiple myeloma) cells
# TEST_NAME: Assay 2: Effect of compounds on p-IKKa levels in L363 (NIK translocated multiple myeloma) cells
# Type: cell-based
# TEST_CONTEXT: Homo sapiens, L-363, 6 h, read-out: Assay 2 IC50 (nM), p-IKKa (Ser 176/180) in BAFF stimulated L363 cells with MG132, 6 h; average if tested more than once
# Experimental: Assay 2: Effect of Compounds on p-IKKa Levels in L363 (NIK Translocated Multiple Myeloma) Cells All compounds tested were dissolved and serially diluted in DMSO, 1:3 dilution for 11 points in an Echo compatible plate. 100% DMSO was added to columns 12 and 24 of the plate to serve as high and low signal controls. This compound plate was used to spot 20 nL of compound or DMSO into a Greiner 384 well TC plate (781080). The final DMSO concentration was 0.3% (v/v) in cell assays. […]

INSERT INTO measurements (compound, parameter_measured, result) VALUES
  ('CN1CC[C@@](O)(c2csc(-c3cccc(-c4ccnc(Nc5ccn(C)n5)n4)n3)n2)C1=O (single isomer, unassigned) [Example 81]', 'IC50', '> 500 nM'),
  ('Cc1ncccc1Nc1nccc(-c2cccc(-n3cc([C@]4(O)CCN(C)C4=O)nn3)n2)n1 [Example 190]', 'IC50', '< 50 nM'),
  ('CN1CC[C@@](O)(c2cc(-c3cccc(-c4ccnc(NCc5ccn(C)n5)n4)n3)no2)C1=O [Example 367]', 'IC50', '50 to 500 nM'),
  ('Cc1nn(CC(C)(C)O)cc1Nc1nccc(-c2cccc(-c3cc([C@]4(O)CCN(C)C4=O)on3)n2)n1 [Example 234]', 'IC50', '< 50 nM');

Notebook: Cc1nn(CC(C)(C)O)cc1Nc1nccc(-c2cccc(-c3cc([C@@]4(O)C(=O)N(C)CC4(F)F)on3)n2)n1 [Example 235] , IC50 read as < 50 nM

Notebook: Cc1cc(Nc2nccc(-c3cccc(-c4cc([C@]5(O)CCN(C)C5=O)no4)n3)n2)ccn1 [Example 213] , IC50 read as 50 to 500 nM

Notebook: CN1CC[C@@](O)(c2cc(-c3cccc(-c4ccnc(Nc5cnc6ccccn56)n4)n3)no2)C1=O [Example 219] , IC50 read as > 500 nM
